Listing of recorded Mean relative activity by entry.
System: K562 CRISPRi cells
testMethodNotes: Constant region variant library pooled growth screen, K562
Type: cell-based, human
measurementParameters: sgRNA constant region variants; relative to the original, un-modified constant region cr995 (= 1)
Description: We calculated relative activities for each targeting sequence:constant region pair by normalizing its phenotype to that of the targeting sequence paired with the unmodified constant region, identifying 409 constant region variants that on average conferred intermediate activity (0.1-0.9, FIG. 5B). Ten variants selected for individual evaluation also mediated intermediate levels of mRNA knockdown (FIG. 6B). […]

Reported Mean relative activity for cr710 (nucleic acid, listed as DNA, chemistry not fully specified) guide: GTTTAAGAGCTAAGCTGGAAACAGCATAGCAAGTTTAAATAAGGCTAGTCCGTTATCAACTTGAAAAAGTGGCAGCGAGTCGCTGCT : what is it?
1.021

cr609 (nucleic acid, listed as DNA, chemistry not fully specified) guide: GTTTAAGAGCTAAGCTGGAAACAGCATAGCATGTTTAAATAAGGCTAGTCCGTTATCAACTTAAAAAAGTGGCACCGAATCGGTGCT , same question.
0.9895

cr669 (nucleic acid, listed as DNA, chemistry not fully specified) guide: GTTTAAGAGCTAAGCTGGAAACAGCATAGCAAGTTTAAATAAGGCTAGTCCGTTATCAACTTGAAAAAGTGGCACCGAATCGGTGCT , same question.
0.9881

cr152 (nucleic acid, listed as DNA, chemistry not fully specified) guide: GTTTAAGAGCTAAGCTGGAAACAGCATAGCAAGTTTAAATAAGGCTAGTCCGTTATCAACTTGAAAAAGTGAAACCGAGTCGGTTTT , same question.
0.9971
